# assayed-system: butyrylcholinesterase (BuChE) (Homo sapiens)
# Sequence (P06276 29-602): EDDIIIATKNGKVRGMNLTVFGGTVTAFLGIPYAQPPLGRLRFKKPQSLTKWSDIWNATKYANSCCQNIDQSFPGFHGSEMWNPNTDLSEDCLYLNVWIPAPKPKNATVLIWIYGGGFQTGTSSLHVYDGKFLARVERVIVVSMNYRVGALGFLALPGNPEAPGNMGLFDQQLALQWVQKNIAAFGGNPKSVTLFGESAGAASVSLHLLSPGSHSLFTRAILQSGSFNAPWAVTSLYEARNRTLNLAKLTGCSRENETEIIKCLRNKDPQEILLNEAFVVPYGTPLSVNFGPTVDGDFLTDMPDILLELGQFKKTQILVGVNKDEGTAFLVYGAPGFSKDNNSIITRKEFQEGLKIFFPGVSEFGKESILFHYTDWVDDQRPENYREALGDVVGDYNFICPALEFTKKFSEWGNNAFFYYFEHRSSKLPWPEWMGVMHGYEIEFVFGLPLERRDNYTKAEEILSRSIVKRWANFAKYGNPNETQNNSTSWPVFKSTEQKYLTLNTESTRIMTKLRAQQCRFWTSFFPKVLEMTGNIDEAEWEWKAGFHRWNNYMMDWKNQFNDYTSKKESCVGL
# test-method-notes: biochemical
# reported-conditions: read-out: % inhibition BuChE
observation-type: inhibition at 0.1 µM (%)
Please reply with the bare figure in % and do not write the unit itself.

Example entries and their recorded answers appear below.
molecule="CC(=O)OC1COC(n2cc(CSc3ccc(-c4ccccn4)nn3)nn2)C(OC(C)=O)C1OC(C)=O (stereo not shown) [Compound 5]" reading_unit=% measured_number=48
molecule="CC(=O)OC[C@H]1O[C@@H](n2cc(CSc3ccc(-c4ccccn4)nn3)nn2)[C@H](OC(C)=O)[C@@H]1OC(C)=O [Compound 6]" reading_unit=% measured_number=8.1
molecule="OC[C@H]1O[C@@H](n2cc(CSc3ccc(-c4ccccn4)nn3)nn2)[C@H](O)[C@@H](O)[C@@H]1O [Compound 7]" reading_unit=% measured_number=13

Let us move to another entry and its inhibition at 0.1 µM.
Any idea what inhibition at 0.1 µM came out for CCN(C)C(=O)Oc1cccc([C@H](C)N(C)C)c1 [Rivastigmine, rivastigmine, reference compound] on butyrylcholinesterase (BuChE) (Homo sapiens)?
3.2
